Where these numbers come from: patent US20170165338A1

target: HLA-A*02 (human)
measurement_protocol: UV-exchange b2m ELISA
Give peptide exchange yield for every item shown.

Returns the measured peptide exchange yield for the input binder. Input: NALDKVLSV
50 to 75%

Returns the measured peptide exchange yield for the input binder. Input: ALQEELTEL
50 to 75%

Returns the measured peptide exchange yield for the input binder. Input: TITETTVEV
50 to 75%

Returns the measured peptide exchange yield for the input binder. Input: QMFQYFITV
> 75%
